Give IC50 for every item shown.
target: Luciferin 4-monooxygenase (Photinus pyralis, UniProt P08659); experiment: Inhibition of Photinus pyralis luciferase by BrightGlo reporter gene assay
Sequence (P08659 whole entry): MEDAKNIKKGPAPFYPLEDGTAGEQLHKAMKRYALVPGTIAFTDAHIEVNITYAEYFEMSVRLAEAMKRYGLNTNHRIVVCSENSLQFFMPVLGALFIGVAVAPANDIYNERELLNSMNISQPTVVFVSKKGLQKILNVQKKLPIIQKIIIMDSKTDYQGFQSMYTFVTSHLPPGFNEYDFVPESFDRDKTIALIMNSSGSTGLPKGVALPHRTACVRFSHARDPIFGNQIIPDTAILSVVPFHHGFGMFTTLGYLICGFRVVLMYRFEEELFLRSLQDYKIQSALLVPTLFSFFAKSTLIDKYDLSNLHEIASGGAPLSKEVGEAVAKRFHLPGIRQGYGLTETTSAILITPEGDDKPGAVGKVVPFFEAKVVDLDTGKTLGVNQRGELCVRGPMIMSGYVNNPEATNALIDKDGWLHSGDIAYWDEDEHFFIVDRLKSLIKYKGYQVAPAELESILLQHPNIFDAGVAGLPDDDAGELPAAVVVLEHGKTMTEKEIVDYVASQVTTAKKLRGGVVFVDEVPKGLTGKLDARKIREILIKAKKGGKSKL

Record excerpt, results attached:
CCOc1ccc2nc(NC(=O)Nc3cccs3)sc2c1 | 11.3 µM
Cc1ccc(-c2noc(-c3ccccc3Br)n2)cc1 | 12 µM
Clc1cccc(-c2nc(-c3ccccn3)no2)c1 | 1.2 µM
Cc1ccc(C(=O)Nc2nc3ccc(S(C)(=O)=O)cc3s2)s1 | 13.3 µM
COc1ccc(C(=O)Nc2ccc(C)cn2)c(OC)c1 | 0.2 µM
COc1ccc2nc(NC(=O)c3ccoc3C)sc2c1 | 5.9 µM
c1ccc(-c2noc(-c3ccc4ccccc4c3)n2)cc1 | 2.6 µM
O=C(/C=C\Nc1ccccn1)c1ccc(Cl)cc1 | 1.2 µM

Dear reader, for each entry below, please note its IC50.
1. O=C(N/N=C/c1ccccc1O)c1ccccc1O
2. O=C(/C=C\Nc1cccc(F)c1)c1ccc2c(c1)OCO2
3. Cc1ccc(C(=O)Cn2c3c(sc2=N)CCCC3)cc1
4. CCOc1ccc(NC(=O)c2ccccc2OC)cc1
5. COc1ccc(C(=O)NC(=O)Nc2cc(C)ccn2)cc1

a:
["2.6 µM", "1.9 µM", "0.6 µM", "8.3 µM", "1 µM"]

Dear reader, for each entry below, please note its IC50.
1. CS(=O)(=O)c1ccc2nc(NC(=O)c3cccs3)sc2c1
2. CN(C)c1ccc(N/C=C\C(=O)c2ccccc2)cc1

a:
1: 3.2 µM; 2: 0.7 µM

Dear reader, for each entry below, please note its IC50.
1. O=C(/C=C\Nc1ccccc1Br)c1ccccn1
2. Brc1ccc(-c2nc(-c3ccccn3)no2)o1
3. CC(C)(C)C(=O)Nc1ccc(NC(=O)c2cccc(O)c2)nc1
4. COc1ccc(-c2cc3ccc(OCc4nn[nH]n4)cc3oc2=O)cc1
5. Cc1ccc(-c2nc(-c3ccccc3)no2)c(Cl)c1
6. Cc1cccc(/C=C/c2ccccc2)n1
7. Cc1cc(-c2ccc(/N=N/c3ccc4c(S(=O)(=O)O)cc(S(=O)(=O)O)c(N)c4c3O)c(C)c2)ccc1/N=N/c1ccc2c(S(=O)(=O)O)cc(S(=O)(=O)O)c(N)c2c1O [EVANS BLUE]
8. Cc1ccc2nc(NC(=O)c3cccs3)sc2c1

a:
["0.08 µM", "12 µM", "7.2 µM", "13.3 µM", "0.3 µM", "24 µM", "17 µM", "6.7 µM"]
